B1: ZBTB22 (parent)
chain: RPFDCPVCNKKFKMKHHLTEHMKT

Variants of: B1
assay-remarks: protein stability index of a GFP-peptide fusion (GPS, HEK-293T) (PSI 1-6); higher = more stable;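 note: lentivirally expressed fusions sorted by FACS into six bins by GFP to DsRed ratio, PSI derived from sequencing read proportions per bin multiplied by bin number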
condition-description: c terminus: a fixed tail appended
Some variants, each annotated with its measured protein stability index.
The answer should be a number; do not append a unit.

Given the entry `K10G` , report its measured protein stability index. 2.25
